assay: Cmax in ICR mouse at 0.3 mg/kg, po; assay type: ADME, organism-based; parameters: dose 0.3 mg/kg, route oral; settings: in vivo
attribute-measured: Cmax (ng/mL)
Reply numerically in ng/mL, unit not repeated.

(Q) # Cmax lookup, item O=C(O)Cc1ccc(Cc2cc(-c3cccc(Cl)c3)nc(C(F)(F)F)c2)cc1 [ZATOLMILAST]
(A) 153

====

assay: Oral bioavailability in rat; assay type: ADME, organism-based; details: in vivo
attribute-measured: bioavailability

(Q) # bioavailability lookup, item "O=C(O)Cc1ccc(Cc2cc(-c3cccc(Cl)c3)nc(C(F)(F)F)c2)cc1"
(A) 80 to 100%
